B1: Storkhead-box protein 2, residues 64 to 141; numbered along this chain, Q9P2F5 (parent)
chain: SPISQSQFIPLGEILCLAISAMNSARKPVTQEALMEHLTTCFPGVPTPSQEILRHTLNTLVRERKIYPTPDGYFIVTP

# Variants of: B1
# test: abundance fitness (aPCA) (normalised: wild type 0, dead -1); higher = more abundant; growth selection in yeast, the domain comes from the species named
# details: Homo sapiens
I'd appreciate it if you could supply abundance fitness values for the items below.
Hey, just send me the number, nothing else.

Give the value of abundance fitness reported for the following: I19V
-0.154

Give the value of abundance fitness reported for the following: T59F
0.018

Give the value of abundance fitness reported for the following: T69E
-0.095

Give the value of abundance fitness reported for the following: T40G
-0.045

Give the value of abundance fitness reported for the following: T30I
-0.211

Give the value of abundance fitness reported for the following: A33C
-0.188

Give the value of abundance fitness reported for the following: D71V
-0.022

Give the value of abundance fitness reported for the following: A21H
-0.181

Give the value of abundance fitness reported for the following: L60I
-0.384

Give the value of abundance fitness reported for the following: V76Y
-0.087

Give the value of abundance fitness reported for the following: R62W
-0.081

Give the value of abundance fitness reported for the following: S1M
-0.227

Give the value of abundance fitness reported for the following: E51F
-0.207

Give the value of abundance fitness reported for the following: I66H
-1

Give the value of abundance fitness reported for the following: K65F
-0.084

Give the value of abundance fitness reported for the following: V61D
-0.186

Give the value of abundance fitness reported for the following: E51N
-0.301

Give the value of abundance fitness reported for the following: P10Y
0.003

Give the value of abundance fitness reported for the following: S1H
-0.103

Give the value of abundance fitness reported for the following: N58K
-0.071

Give the value of abundance fitness reported for the following: E32C
-0.174

Give the value of abundance fitness reported for the following: P48W
-0.28

Give the value of abundance fitness reported for the following: C16S
-0.091

Give the value of abundance fitness reported for the following: L17S
0.008

Give the value of abundance fitness reported for the following: T77V
-0.065

Give the value of abundance fitness reported for the following: A21F
-0.212

Give the value of abundance fitness reported for the following: A21S
0.062

Give the value of abundance fitness reported for the following: S49G
-0.068

Give the value of abundance fitness reported for the following: P68G
-0.003

Give the value of abundance fitness reported for the following: N58S
-0.03

Give the value of abundance fitness reported for the following: F8C
-0.104

Give the value of abundance fitness reported for the following: L57C
-0.202

Give the value of abundance fitness reported for the following: T40D
-0.069

Give the value of abundance fitness reported for the following: T40P
-0.551

Give the value of abundance fitness reported for the following: P78Y
-0.098

Give the value of abundance fitness reported for the following: T30W
-0.043

Give the value of abundance fitness reported for the following: L17D
-0.069

Give the value of abundance fitness reported for the following: Y73R
-0.055

Give the value of abundance fitness reported for the following: E36Y
-0.144

Give the value of abundance fitness reported for the following: F42R
0.001

Give the value of abundance fitness reported for the following: L17I
0.133

Give the value of abundance fitness reported for the following: M35S
0.005

Give the value of abundance fitness reported for the following: L53E
-0.929

Give the value of abundance fitness reported for the following: R64Y
-0.174

Give the value of abundance fitness reported for the following: I14V
-0.031

Give the value of abundance fitness reported for the following: K65I
-0.21

Give the value of abundance fitness reported for the following: E36C
-0.064

Give the value of abundance fitness reported for the following: R54Q
0.066

Give the value of abundance fitness reported for the following: L38Q
-0.865

Give the value of abundance fitness reported for the following: S49I
-0.835

Give the value of abundance fitness reported for the following: E32V
-0.071

Give the value of abundance fitness reported for the following: P70E
-0.004

Give the value of abundance fitness reported for the following: V29M
-0.278

Give the value of abundance fitness reported for the following: L15I
-0.061

Give the value of abundance fitness reported for the following: I75K
-0.219

Give the value of abundance fitness reported for the following: G44L
-0.091

Give the value of abundance fitness reported for the following: V29L
-0.408

Give the value of abundance fitness reported for the following: I52P
-0.654

Give the value of abundance fitness reported for the following: V76F
-0.012

Give the value of abundance fitness reported for the following: S1R
-0.344

Give the value of abundance fitness reported for the following: H55N
0.109

Give the value of abundance fitness reported for the following: S1Y
-0.122

Give the value of abundance fitness reported for the following: E63R
-0.015

Give the value of abundance fitness reported for the following: T47C
-0.115

Give the value of abundance fitness reported for the following: R26T
-0.005

Give the value of abundance fitness reported for the following: T59C
0.122

Give the value of abundance fitness reported for the following: I66M
-0.249

Give the value of abundance fitness reported for the following: E36G
-0.028

Give the value of abundance fitness reported for the following: S4V
-0.056

Give the value of abundance fitness reported for the following: V76C
0.03

Give the value of abundance fitness reported for the following: T39Y
0.024

Give the value of abundance fitness reported for the following: H37N
-0.092

Give the value of abundance fitness reported for the following: H37D
-0.259

Give the value of abundance fitness reported for the following: N23L
-0.354

Give the value of abundance fitness reported for the following: Q5T
0.049

Give the value of abundance fitness reported for the following: T59D
-0.016

Give the value of abundance fitness reported for the following: T39V
0.098

Give the value of abundance fitness reported for the following: Q5G
-0.12

Give the value of abundance fitness reported for the following: Y73D
-0.136

Give the value of abundance fitness reported for the following: P46W
-0.174

Give the value of abundance fitness reported for the following: T47F
-0.273

Give the value of abundance fitness reported for the following: P43L
-0.09

Give the value of abundance fitness reported for the following: E51K
0.003

Give the value of abundance fitness reported for the following: N58V
0.002

Give the value of abundance fitness reported for the following: D71Q
-0.054

Give the value of abundance fitness reported for the following: I14S
0.01

Give the value of abundance fitness reported for the following: L57E
-0.784

Give the value of abundance fitness reported for the following: Q50M
0.036

Give the value of abundance fitness reported for the following: C16L
-0.019

Give the value of abundance fitness reported for the following: I3A
-0.075

Give the value of abundance fitness reported for the following: I19H
-0.852
